// reported pIC50 for each item listed
# study target: hDGAT2 (Homo sapiens (Human), UniProt Q96PD7)
# Sequence (Q96PD7 whole entry): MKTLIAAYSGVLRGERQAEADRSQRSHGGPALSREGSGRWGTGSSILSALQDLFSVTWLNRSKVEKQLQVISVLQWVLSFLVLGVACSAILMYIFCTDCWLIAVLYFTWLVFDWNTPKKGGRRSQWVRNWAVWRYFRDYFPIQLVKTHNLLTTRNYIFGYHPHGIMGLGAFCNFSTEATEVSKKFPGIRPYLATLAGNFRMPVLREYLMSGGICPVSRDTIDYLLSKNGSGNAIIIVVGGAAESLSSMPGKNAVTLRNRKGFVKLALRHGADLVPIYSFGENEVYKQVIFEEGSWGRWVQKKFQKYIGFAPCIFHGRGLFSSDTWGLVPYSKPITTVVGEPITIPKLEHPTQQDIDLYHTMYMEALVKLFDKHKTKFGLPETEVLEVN
# assay procedure: DGAT2 enzymatic activity assay (triolein formation, LC/MS/MS)
# condition context: read-out: IC50 values for inhibition of DGAT2; membrane prep of Sf-9 cells expressing hDGAT2; 25 μM diolein, 10 μM oleoyl-CoA; room temperature; triolein by LC/MS/MS
pIC50: −log10 of the molar value.
assay endpoint: pIC50

>>> df
                                    compound  observed_value
 0  COC(=O)c1cccc(-c2ccc(CNC(=O)C3CCN(c4ccc(C(F)(F)F)cc4)CC3)c3cnccc23)c1 [Example 5]            7.00
 1  COC(=O)c1cccc(-c2ccc(CNC(=O)C3CC34CCCC4)c3cnccc23)c1 (centres unmarked) [Example 10]            6.79
 2  COc1cccc(-c2ccc(CNC(=O)Nc3ccccc3-c3ccccc3)c3cnccc23)c1 [Example 169]            5.15
 3  COc1cccc(-c2ccc(CNC(=O)c3cccc4ncccc34)c3cnccc23)c1 [Example 45]            6.13
 4  O=C(NCc1ccc(-c2cccc(OC(F)(F)F)c2)c2ccncc12)C1CC1c1ccccc1 (centres unmarked) [Example 17]            5.43
 5  COc1cccc(-c2ccc(CNC(=O)c3cnccc3C(F)(F)F)c3cnccc23)c1 [Example 127]            5.85
 6  CC(c1ccccc1)c1ccc(CNC(=O)Nc2cccc(Cl)c2Cl)c2cnccc12 (centres unmarked) [Example 164]            5.38
 7  COc1cccc(-c2ccc(CNC(=O)Cc3ccccc3Oc3ccccc3)c3cnccc23)c1 [Example 55]            6.51
 8  O=C(NCc1ccc(-c2cccc(C(=O)N3CCOCC3)c2)c2ccncc12)Nc1cccc(Cl)c1Cl [Example 166]            5.36
 9  CCCc1cc(C(=O)NCc2ccc(-c3cccc(OC)c3)c3ccncc23)n(C)n1 [Example 44]            5.84
10  COc1cccc(-c2ccc(CNC(=O)Cc3cccc(Cl)c3)c3cnccc23)c1 [Example 54]            5.56
11  CC(C)OC(=O)c1cccc(-c2ccc(CNC(=O)C3CC3c3ccccc3)c3cnccc23)c1 (centres unmarked) [Example 20]            5.73
12  COc1cccc(-c2ccc(CNC(=O)C3CC34CCCCC4)c3cnccc23)c1 (centres unmarked) [Example 100]            6.61
13  O=C(NCc1ccc(C2=CCNC2)c2ccncc12)Nc1cccc(Cl)c1Cl [Example 167]            5.35
14  COc1cccc(-c2ccc(CNC(=O)c3ccn(C)n3)c3cnccc23)c1 [Example 154]            5.48
15  COc1cccc(-c2ccc(CNC(=O)C3CC3(F)c3ccccc3)c3cnccc23)c1 (centres unmarked) [Example 109]            6.16
16  COc1cccc(-c2ccc(CNC(=O)Cc3cc(F)c(F)c(F)c3)c3cnccc23)c1 [Example 60]            5.67

====

Consider the following compounds and their measured pIC50 readings.
# study target: UniProt Q96PD7
# assay procedure: DGAT2 enzymatic activity assay (triolein formation, LC/MS/MS)
# condition context: read-out: IC50 values for inhibition of DGAT2; membrane prep of Sf-9 cells expressing hDGAT2; 25 μM diolein, 10 μM oleoyl-CoA; room temperature; triolein by LC/MS/MS
pIC50: −log10 of the molar value.
assay endpoint: pIC50

>>> print(df.to_string())
                            molecule_smiles  observed_value
0  COc1cccc(-c2ccc(CNC(=O)c3csc(-c4ccc(C(F)(F)F)cc4)n3)c3cnccc23)c1            5.90
1  COc1cccc(-c2ccc(CNC(=O)c3cccc(-n4cccn4)c3)c3cnccc23)c1            5.13
2  COc1cccc(-c2ccc(CNC(=O)c3cn(-c4ccccc4)nc3-c3ccccc3)c3cnccc23)c1            6.32
3  CCc1cc(C(=O)NCc2ccc(-c3cccc(OC)c3)c3ccncc23)n(C)n1            5.46

====

# study target: hDGAT2 (Homo sapiens (Human), UniProt Q96PD7)
# assay procedure: DGAT2 enzymatic activity assay (triolein formation, LC/MS/MS)
# condition context: read-out: IC50 values for inhibition of DGAT2; membrane prep of Sf-9 cells expressing hDGAT2; 25 μM diolein, 10 μM oleoyl-CoA; room temperature; triolein by LC/MS/MS
assay endpoint: IC50 (nM)

                                   compound  unit_abbreviation  observed_value
0  COc1cccc(-c2ccc(CNC(=O)C(C)(C)Oc3cc(C(F)(F)F)ccn3)c3cnccc23)c1                 nM            6110
1  COc1cccc(-c2ccc(CNC(=O)Cc3ccccc3F)c3cnccc23)c1                 nM             993
2  CC(C)(C)OC(=O)N1CC=C(c2ccc(CNC(=O)Nc3cccc(Cl)c3Cl)c3cnccc23)CC1                 nM            1950
3  CCOC(=O)c1cccc(-c2ccc(CNC(=O)C3CC3c3ccccc3)c3cnccc23)c1 (centres unmarked)                 nM              71
4  COc1cccc(-c2ccc(CNC(=O)c3cnn(-c4ccccc4)c3)c3cnccc23)c1                 nM            8490
5  COc1cccc(-c2ccc(CNC(=O)Cc3cccc(OC(F)(F)F)c3)c3cnccc23)c1                 nM             602
6  COc1cccc(-c2ccc(CNC(=O)[C@H]3C[C@@H]3c3nc(C)no3)c3cnccc23)c1 (relative stereo)                 nM             589
7  COc1cccc(-c2ccc(CNC(=O)C3CCCN(c4ccccn4)C3)c3cnccc23)c1 (centres unmarked)                 nM            7780

====

# study target: hDGAT2 (Homo sapiens (Human))
# assay procedure: DGAT2 enzymatic activity assay (triolein formation, LC/MS/MS)
# condition context: read-out: IC50 values for inhibition of DGAT2; membrane prep of Sf-9 cells expressing hDGAT2; 25 μM diolein, 10 μM oleoyl-CoA; room temperature; triolein by LC/MS/MS
pIC50: −log10 of the molar value.
assay endpoint: pIC50

>>> print(df.to_string())
                                   compound  observed_value
0  COc1cccc(-c2ccc(CNC(=O)c3cnc(-c4ccccc4)cn3)c3cnccc23)c1            5.04
1  COc1cccc(-c2ccc(CNC(=O)c3cc(Br)cnc3-c3ccccc3)c3cnccc23)c1            5.37
2  COc1cccc(-c2ccc(CNC(=O)c3cccc4cnccc34)c3cnccc23)c1            5.75
3  COc1cccc(-c2ccc(CNC(=O)Cc3cc(F)c(F)cc3F)c3cnccc23)c1            6.26
4  COc1cccc(-c2ccc(CNC(=O)[C@@H]3C[C@@H]3c3ccc(C(F)(F)F)cc3)c3cnccc23)c1 (relative stereo)            5.59
5  COc1cccc(-c2ccc(CNC(=O)C3CC3c3cccnc3)c3cnccc23)c1 (centres unmarked)            6.32
6  COc1cccc(-c2ccc(CNC(=O)c3ccn(-c4ccccc4)n3)c3cnccc23)c1            5.90
7  COc1cccc(-c2ccc(CNC(=O)C(C)c3ccc(-c4ccccc4)cc3)c3cnccc23)c1 (centres unmarked)            6.49

====

Property: IC50; scope: individual molecules
# study target: hDGAT2 (Homo sapiens (Human), UniProt Q96PD7)
# assay procedure: DGAT2 enzymatic activity assay (triolein formation, LC/MS/MS)
# condition context: read-out: IC50 values for inhibition of DGAT2; membrane prep of Sf-9 cells expressing hDGAT2; 25 μM diolein, 10 μM oleoyl-CoA; room temperature; triolein by LC/MS/MS
assay endpoint: IC50 (nM)

In [3]: df
Out[3]:
                                   molecule                              study_target  observed_value
0  COc1cccc(-c2ccc(CNC(=O)C3CC3c3ccc(Cl)cc3)c3cnccc23)c1 (stereo not shown)  hDGAT2 (Homo sapiens (Human), UniProt Q96PD7)             597
1  COc1cccc(-c2ccc(CNC(=O)Cc3ccc(F)c(F)c3F)c3cnccc23)c1  hDGAT2 (Homo sapiens (Human), UniProt Q96PD7)            7290
2  COc1cccc(-c2ccc(CNC(=O)c3cccc4cccnc34)c3cnccc23)c1  hDGAT2 (Homo sapiens (Human), UniProt Q96PD7)            2010
3  COC(=O)c1cccc(-c2ccc(CNC(=O)Cc3ccc(Oc4ccccc4)cc3)c3cnccc23)c1  hDGAT2 (Homo sapiens (Human), UniProt Q96PD7)             101
